Test system: PBMC cells obtained from mite allergic patients and non-allergics
ASSAY_INFO: Ex vivo stimulation of PBMC: cytokine production (IFN-gamma, IL-9, IL-10, IL-17, IL-31)
Format: cell-based, human
MEASUREMENT_CONTEXT: non-allergic individuals; IL-31
Measured % non-allergic individuals with cytokine production in ex-vivo T cell assay IL-31 of individual entries
RESULT_TYPE: % non-allergic individuals with cytokine production in ex-vivo T cell assay IL-31 (%)

{"MOLECULE": "A025: house dust mite protein; SEQ ID NO: 17 (Der f), 18 (Der p) (protein) QSLFVDYNDYSCGSSQNETNELIQEFKIFKKNINGNENFKKINDFIEKARLFRDNAAKQMLEIDQQLLTLNVIQISQRIKLENNKIQCEKLTKFSELLSMQLLAYEVGMFEFAEEIDPNIDFDRKMKNFLDETSRLFNLAEFEKLEKKFRNATSIEKLKNYIDGELVALNDYINEFLKDIIMSEFTVQSRYYLNFSIEDQVQIDSTLMTFSALKILLNDLKDYLEHLDN", "UNITS_LABEL": "%", "ASSAY_RESULT": 0}
{"MOLECULE": "Derf2: major house dust mite allergen, group 2, Dermatophagoides farinae; control (protein, UniProt Q00855 18-146, looked up) Mite group 2 allergen Der f 2: DQVDVKDCANNEIKKVMVDGCHGSDPCIIHRGKPFTLEALFDANQNTKTAKIEIKASLDGLEIDVPGIDTNACHFMKCPLVKGQQYDIKYTWNVPKIAPKSENVVVTVKLIGDNGVLACAIATHGKIRD", "UNITS_LABEL": "%", "ASSAY_RESULT": 0}
{"MOLECULE": "Derp2: major house dust mite allergen, group 2, Dermatophagoides pteronyssinus; control (protein, UniProt P49278 18-146, looked up) Mite group 2 allergen Der p 2: DQVDVKDCANHEIKKVLVPGCHGSEPCIIHRGKPFQLEAVFEANQNTKTAKIEIKASIDGLEVDVPGIDPNACHYMKCPLVKGQQYDIKYTWNVPKIAPKSENVVVTVKVMGDDGVLACAIATHAKIRD", "UNITS_LABEL": "%", "ASSAY_RESULT": 0}
{"MOLECULE": "Derp1: major house dust mite allergen, group 1, Dermatophagoides pteronyssinus; control (protein, UniProt P08176 99-320, looked up) Peptidase 1: TNACSINGNAPAEIDLRQMRTVTPIRMQGGCGSCWAFSGVAATESAYLAYRNQSLDLAEQELVDCASQHGCHGDTIPRGIEYIQHNGVVQESYYRYVAREQSCRRPNAQRFGISNYCQIYPPNVNKIREALAQTHSAIAVIIGIKDLDAFRHYDGRTIIQRDNGYQPNYHAVNIVGYSNAQGVDYWIVRNSWDTNWGDNGYGYFAANIDLMMIEEYPYVVIL", "UNITS_LABEL": "%", "ASSAY_RESULT": 0}
{"MOLECULE": "Derf1: major house dust mite allergen, group 1, Dermatophagoides farinae; control (protein, UniProt P16311 99-321, looked up) Peptidase 1: TSACRINSVNVPSELDLRSLRTVTPIRMQGGCGSCWAFSGVAATESAYLAYRNTSLDLSEQELVDCASQHGCHGDTIPRGIEYIQQNGVVEERSYPYVAREQRCRRPNSQHYGISNYCQIYPPDVKQIREALTQTHTAIAVIIGIKDLRAFQHYDGRTIIQHDNGYQPNYHAVNIVGYGSTQGDDYWIVRNSWDTTWGDSGYGYFQAGNNLMMIEQYPYVVIM", "UNITS_LABEL": "%", "ASSAY_RESULT": 0}
